tested on: U2OS; test: cell viability relative to DMSO; higher = less toxic; conditions: 72 h; 10000 nM
measured.parameter: cell viability (%)
// units = %; emit number, no label

Study these solved cases before continuing.
{"compound": "C[C@@H](CN1CC(=O)NC(=O)C1)N1CC(=O)NC(=O)C1", "target.or.test.system": "U2OS", "measured.parameter": "cell viability", "unit.label": "%", "observed": 98.6}
{"compound": "O=S(=O)(F)Cc1ccccc1 [phenylmethylsulfonyl-fluoride]", "target.or.test.system": "U2OS", "measured.parameter": "cell viability", "unit.label": "%", "observed": 101}
{"compound": "COc1cc(OC)c(C(=O)CCCCN2CCC3(CC2)NC(=O)NC3=O)cc1NS(=O)(=O)c1ccc(C(F)(F)F)cc1", "target.or.test.system": "U2OS", "measured.parameter": "cell viability", "unit.label": "%", "observed": 94.7}

Q: Which cell viability reading was recorded for the compound CN1C(=O)CCS(=O)(=O)C1c1ccc(Cl)cc1 (stereo not drawn) ?
Result: 103

Q: Which cell viability reading was recorded for the compound CO[C@@]1(NC(=O)Cc2cccs2)C(=O)N2C(C(=O)O)=C(COC(N)=O)CS[C@@H]21 ?
Result: 105

Q: Which cell viability reading was recorded for the compound COC(=O)N[C@H](C(=O)N1CCC[C@H]1c1ncc(-c2ccc(-c3ccc(-c4cnc([C@@H]5CCCN5C(=O)[C@@H](NC(=O)OC)C(C)C)[nH]4)cc3)cc2)[nH]1)C(C)C ?
Result: 90.3

Q: Which cell viability reading was recorded for the compound COc1ccc2cc([C@H](C)C(=O)O)ccc2c1 ?
Result: 102

Q: Which cell viability reading was recorded for the compound CC(=O)N(CC(O)CO)c1c(I)c(C(=O)NCC(O)CO)c(I)c(C(=O)NCC(O)CO)c1I (stereo not drawn) [iohexol] ?
Result: 104

----------
Below: a set of entries, each annotated with reported cell viability.
test system: U2OS; test: cell viability relative to DMSO; higher = less toxic; details: 72 h; 100 nM
// units = %; emit number, no label

{"compound": "Cc1ccc(-c2nc3ccc(C)cn3c2CC(=O)N(C)C)cc1", "observed": 101}

Q: Which cell viability reading was recorded for the compound Oc1ccc2c3c1O[C@H]1[C@@H](O)CC[C@@]4(O)[C@@H](C2)N(CC2CCC2)CC[C@]314 ?
Result: 98.2

Q: Which cell viability reading was recorded for the compound CC1(C)CCC(C)(C)c2c1cc(C(=O)Nc1cc(F)c(C(=O)O)c(F)c1)c(O)c2Cl ?
Result: 90.7

Q: Which cell viability reading was recorded for the compound Cc1c(-c2cnccn2)ssc1=S ?
Result: 101

Q: Which cell viability reading was recorded for the compound CCCCOC(=O)c1ccc(N)cc1 ?
Result: 102

Q: Which cell viability reading was recorded for the compound CC1=C(/C=C/C(C)=C/C=C/C(C)=C/C(=O)O)C(C)(C)CCC1 ?
Result: 94.3

Q: Which cell viability reading was recorded for the compound CCCCCCCCCCCCCCCCCCCCCC(=O)Nc1ccn([C@@H]2O[C@H](CO)[C@@H](O)[C@@H]2O)c(=O)n1 ?
Result: 95.4

Q: Which cell viability reading was recorded for the compound C=CC1=C(C)c2cc3[nH]c(cc4nc(cc5[nH]c(cc1n2)c(C)c5CCC(=O)O)C(CCC(=O)O)=C4C)c(C)c3C=C ?
Result: 98.2

Q: Which cell viability reading was recorded for the compound COc1ccc(S(=O)(=O)N2c3ccc(Cl)cc3[C@](O)(c3ccccc3Cl)[C@@H]2C(=O)N2CCC[C@H]2C(N)=O)cc1OC ?
Result: 102
